Can you tell me melting point for the items I'm about to list?

// known answers, use as guide
>>> value_observed("O=C(CCc1ccccc1)N[C@H](Cc1ccc(C(F)(F)F)cc1)[C@@H](O)c1ccc(Oc2ccccc2)cc1 (racemic) [Example 211]")
"133 to 134 °C"
>>> value_observed("O=C(Nc1ccc(C(F)(F)F)cc1)N[C@H](Cc1ccc(C(F)(F)F)cc1)[C@@H](O)c1ccc(F)cc1 (racemic) [Example 119]")
"160 to 161 °C"
>>> value_observed("CC1(C)COc2ccc(C[C@@H](NC(=O)c3cccc4c3C=CCCC4)[C@@H](O)c3cccc(Cl)c3)cc21 (racemic) [Example 377]")
"149 to 150 °C"
>>> value_observed("O=C(N[C@H](Cc1ccc(CC(F)(F)C(F)(F)F)cc1)[C@@H](O)c1cccc(Cl)c1)c1ccc(F)c2ccccc12 (racemic) [Example 373]")
"191 to 192 °C"
>>> value_observed("O=C(N[C@H](Cc1ccc(C(F)(F)F)cc1)[C@@H](O)c1ccc(Oc2ccccc2)cc1)c1ccc(F)c2ccccc12 (racemic) [Example 209]")
"205 to 210 °C"

// moving on: another record for melting point
Query: Using the record for CC(C)(C)OC(=O)N[C@H](Cc1ccc(C(F)(F)F)cc1)[C@H](O)c1ccc(F)cc1 (racemic) [Example 24] , report its melting point.
Response: 95 to 96 °C

---

Can you tell me melting point for the items I'm about to list?

>>> value_observed("O=C(CCc1ccccc1)N[C@H](Cc1ccc(C(F)(F)F)cc1)[C@@H](O)c1ccc(F)cc1F (racemic)")
"126 to 127 °C"
>>> value_observed("CCOC(=O)N[C@H](Cc1ccc(C(F)(F)F)cc1)[C@@H](O)c1ccc(F)cc1 (racemic)")
"143 to 144 °C"
>>> value_observed("O=C(O)COc1ccc([C@@H](O)[C@H](Cc2cccc(OC(F)(F)C(F)F)c2)NC(=O)c2cccc3c2C=CCCC3)cc1 (racemic)")
"119 to 120 °C"
>>> value_observed("Cc1oc(C(C)C)c(C(=O)N[C@H](Cc2ccc(C(F)(F)F)cc2)[C@@H](O)c2ccc(F)cc2)c1-c1ccc(F)cc1 (racemic)")
"134 to 136 °C"
>>> value_observed("O=C(N[C@H](Cc1ccc(C(F)(F)F)cc1)[C@@H](O)c1ccccc1)c1ccc(F)c2ccccc12 (racemic)")
"217 to 218 °C"

I'm hoping you can list melting point for every compound here, please.
1. O=C(N[C@H](Cc1ccc(C(F)(F)F)cc1)[C@@H](O)c1ccc(F)cc1)c1ccc(F)c2c1CCCC2 (racemic)
2. O=C(N[C@H](Cc1cccc(OC(F)(F)F)c1)[C@@H](O)c1ccc(F)cc1)c1cccc2c1C=CCCC2 (racemic)
3. O=C(N[C@H](Cc1ccc2c(c1)OC(F)(F)C(F)(F)O2)[C@@H](O)c1ccc(F)cc1)c1cccc2c1C=CCCC2 (racemic)

Response:
1: 241 to 242 °C; 2: 177 to 178 °C; 3: 184 to 185 °C

Give measured melting point for every item shown.
1. O=C(N[C@H](Cc1ccc(C(F)(F)F)cc1)[C@@H](O)c1ccc(Cl)s1)c1cccc2c1C=CCCC2 (racemic)
2. COc1ccc(C(=O)NC(Cc2ccc(C(F)(F)F)cc2)C(O)c2ccc(F)cc2)cc1 (racemic)
3. CC(C)(C)C(F)(F)c1ccc(C[C@@H](NC(=O)c2cccc3c(Cl)cccc23)[C@@H](O)c2cccc(Cl)c2)cc1 (racemic)
4. CC(C)(C)OC(=O)N[C@H](Cc1cccc(OC(F)(F)C(F)F)c1)[C@@H](O)c1cccc(F)n1 (racemic)

Response:
184 to 185 °C
174 to 176 °C
99 to 101 °C
140 to 141 °C

Query: Sample O=C(N[C@H](Cc1cccc(OC(F)(F)C(F)F)c1)[C@@H](O)c1ccc(OCc2ccccc2)cc1)c1cccc2c1C=CCCC2 (racemic) — what was its melting point?
Response: 115 to 116 °C
